Here, each record is paired with measured Fluorescence λem data.
# Assay Remarks: UV/vis absorption and fluorescence of pyrazine dyes
# Assay type: physicochemical
# Details: 100 nM
Structures can show the parent of a compound that is named as a salt.
Answer format: numeric, nm implied, no suffix.

Check out these entries, answers already filled in.
- Compound: "COCCOCCOCCOCCOCCOCCOCCOCCOCCOCCOCCOCCC(=O)NCCNC(=O)c1nc(N)c(C(=O)NCCNC(=O)CCOCCOCCOCCOCCOCCOCCOCCOCCOCCOCCOCCOC)nc1N"
  Reported Value: 559
- Compound: "NCCNC(=O)c1nc(N)c(C(=O)NCCN)nc1N [Example 7, Bis TFA Salt]"
  Reported Value: 562
- Compound: "Nc1nc(C(=O)N[C@H](CC(=O)O)C(=O)O)c(N)nc1C(=O)N[C@H](CC(=O)O)C(=O)O"
  Reported Value: 558
- Compound: "COCCOCCOCCOCCOCCOCCOCCOCCC(=O)NCCNC(=O)c1nc(N)c(C(=O)NCCNC(=O)CCOCCOCCOCCOCCOCCOCCOCCOC)nc1N"
  Reported Value: 560

Continue with the next compound.
*Q* Identify the reported Fluorescence λem for the following entry. "COCCOCCOCCOCCC(=O)NCCNC(=O)c1nc(N)c(C(=O)NCCNC(=O)CCOCCOCCOCCOC)nc1N"
*A* 559

###

# Assay Remarks: UV/vis absorption and fluorescence of pyrazine dyes
# Format: physicochemical
# Details: 100 μM in PBS
Where a name gives a salt, the structure may show the parent alone.
Assay Readout: UV/vis λabs (nm)
Answer format: numeric, nm implied, no suffix.

- Molecule: "NCCNC(=O)c1nc(N)c(C(=O)NCCN)nc1N [Example 7, Bis TFA Salt]"
  Unit Abbreviation: "nm"
  Reported Value: 435
- Molecule: "COCCN(CCOC)C(=O)c1nc(N(CCOC)CCOC)c(C(=O)N(CCOC)CCOC)nc1N(CCOC)CCOC [Example 6, Bis TFA Salt]"
  Unit Abbreviation: "nm"
  Reported Value: 434
- Molecule: "COCCOCCOCCOCCOCCOCCOCCOCCOCCOCCOCCOCCC(=O)NCCNC(=O)c1nc(N)c(C(=O)NCCNC(=O)CCOCCOCCOCCOCCOCCOCCOCCOCCOCCOCCOCCOC)nc1N"
  Unit Abbreviation: "nm"
  Reported Value: 449
- Molecule: "COCCOCCOCCOCCOCCOCCOCCOCCC(=O)NCCNC(=O)c1nc(N)c(C(=O)NCCNC(=O)CCOCCOCCOCCOCCOCCOCCOCCOC)nc1N"
  Unit Abbreviation: "nm"
  Reported Value: 438
- Molecule: "Nc1nc(C(=O)N[C@H](CC(=O)O)C(=O)O)c(N)nc1C(=O)N[C@H](CC(=O)O)C(=O)O"
  Unit Abbreviation: "nm"
  Reported Value: 433

*Q* Identify the reported UV/vis λabs for the following entry. "COCCN(CCOC)c1nc(C(=O)N[C@H](CC(=O)O)C(=O)O)c(N2CCOCC2)nc1C#N"
*A* 438

###

# Assay Remarks: UV/vis absorption and fluorescence of pyrazine dyes
# Format: physicochemical
# Details: 100 nM
Where a name gives a salt, the structure may show the parent alone.
Assay Readout: Fluorescence λex
Express the reported value numerically, then name its unit.

Check out these entries, answers already filled in.
- Compound: "Nc1nc(C(=O)N[C@H](CC(=O)O)C(=O)O)c(N)nc1C(=O)N[C@H](CC(=O)O)C(=O)O"
  Fluorescence λex: "449 nm"
- Compound: "COCCOCCOCCOCCOCCOCCOCCOCCC(=O)NCCNC(=O)c1nc(N)c(C(=O)NCCNC(=O)CCOCCOCCOCCOCCOCCOCCOCCOC)nc1N"
  Fluorescence λex: "438 nm"
- Compound: "COCCOCCOCCOCCC(=O)NCCNC(=O)c1nc(N)c(C(=O)NCCNC(=O)CCOCCOCCOCCOC)nc1N"
  Fluorescence λex: "437 nm"

*Q* Identify the reported Fluorescence λex for the following entry. NCCNC(=O)c1nc(N)c(C(=O)NCCN)nc1N [Example 7, Bis TFA Salt]
*A* 449 nm

*Q* Identify the reported Fluorescence λex for the following entry. "COCCOCCOCCOCCOCCOCCOCCOCCOCCOCCOCCOCCC(=O)NCCNC(=O)c1nc(N)c(C(=O)NCCNC(=O)CCOCCOCCOCCOCCOCCOCCOCCOCCOCCOCCOCCOC)nc1N"
*A* 449 nm

###

# Assay Remarks: UV/vis absorption and fluorescence of pyrazine dyes
# Format: physicochemical
# Details: 100 μM in PBS
Assay Readout: UV/vis λabs (nm)
Answer format: numeric, nm implied, no suffix.

Check out these entries, answers already filled in.
- Compound: "COCCOCCOCCOCCC(=O)NCCNC(=O)c1nc(N)c(C(=O)NCCNC(=O)CCOCCOCCOCCOC)nc1N [Example 9]"
  Assay Readout: "UV/vis λabs"
  Reported Value: 437
- Compound: "Nc1nc(C(=O)N[C@H](CO)C(=O)O)c(N)nc1C(=O)N[C@H](CO)C(=O)O [Example 2]"
  Assay Readout: "UV/vis λabs"
  Reported Value: 434

Continue with the next compound.
*Q* Identify the reported UV/vis λabs for the following entry. COCCN(CCOC)C(=O)c1nc(N)c(C(=O)N(CCOC)CCOC)nc1N [Example 4]
*A* 394
